The reported measurements were obtained from ChEMBL document CHEMBL1143835.

# procedure.text: Antibacterial activity against Streptococcus dysgalactiae subsp. dysgalactiae after 48 hrs by broth microdilution method
# Type: functional
endpoint.label: MIC (µg/mL)
Return type: number; implicit unit µg/mL.

For CC[C@H]1OC(=O)[C@H](C)[C@@H](O[C@H]2C[C@@](C)(OC)[C@@H](O)[C@H](C)O2)[C@H](C)[C@@H](O[C@@H]2O[C@H](C)C[C@H](N(C)C)[C@H]2O)[C@](C)(O)C[C@@H](C)C(=O)[C@H](C)[C@@H](O)[C@]1(C)O the compound record lists MIC as 0.09

For CN(C)[C@@H]1C(O)=C(C(N)=O)C(=O)[C@@]2(O)C(O)=C3C(=O)c4c(O)cccc4[C@@](C)(O)[C@H]3C[C@@H]12 the compound record lists MIC as 4.58

For CC[C@H]1OC(=O)[C@H](C)[C@@H](O[C@H]2C[C@@](C)(OC)[C@@H](O)[C@H](C)O2)[C@H](C)[C@@H](O[C@@H]2O[C@H](C)C[C@H](N(C)C)[C@H]2O)[C@](C)(OC)C[C@@H](C)C(=O)[C@H](C)[C@H]2[C@H](SCCn3cnc4cccnc43)C(=O)O[C@@]21C the compound record lists MIC as 0.12

For CCC[C@@H]1C[C@@H](C(=O)N[C@@H]([C@H]2O[C@H](SC)[C@H](O)[C@@H](O)[C@H]2O)[C@H](C)Cl)N(C)C1 the compound record lists MIC as 0.12
